- Test system: Clostridium difficile ATCC700057
- procedure.details: MIC by microdilution, Clostridium difficile
- Type: cell-based
- assay.context: strain ATCC70057 [sic] (Tables 1-2) / ATCC700057 (Tables 3-10), in duplicate
experimental.endpoint: Minimal Inhibitory Concentration (MIC)

Q: Which value of Minimal Inhibitory Concentration (MIC) has been reported for CC[P+](CC)(CC)[Au-][c]1nn[nH]c1CN1CCOCC1 [TMB32] in the records?
Ans: ≤0.06

Q: Here is the next molecule: CC[P+](CC)(CC)[Au-][c]1nn[nH]c1CNC(=O)NC(C(=O)NC1C(=O)N2C1SC(C)(C)C2C(=O)O)c1ccccc1 (stereo not drawn) [TMB24]
Ans: ≤0.06

Q: Query CC[P+](CC)(CC)[Au-][c]1nn[nH]c1CCCO [TMB34] next
Ans: ≤0.06

Q: Repeat with CC[P+](CC)(CC)[Au-][c]1nn[nH]c1-c1ccc(C(=O)NC(C(=O)NC2C(=O)N3C2SC(C)(C)C3C(=O)O)c2ccccc2)cc1 (stereo not drawn) [TMB22]
Ans: ≤0.06

Q: Can you check CC[P+](CC)(CC)[Au-][c]1nn[nH]c1CNC(=O)CCCC[C@@H]1SC[C@@H]2NC(=O)N[C@@H]21 [TMB42] next?
Ans: 0.25

Q: Would you kindly repeat that for CC[P+](CC)(CC)[Au-][c]1nn[nH]c1CCC(=O)NC(C(=O)O)c1ccccc1 (stereo not drawn) [TMB21] ?
Ans: ≤0.06

Q: Again, but for CC[P+](CC)(CC)[Au-][c]1nn[nH]c1COC(=O)NC(C(=O)O)c1ccc(O)cc1 (stereo not drawn) [TMB26]
Ans: 0.125

Q: Similarly, CC[P+](CC)(CC)[Au-][c]1nn[nH]c1COC(=O)NCC(=O)O [TMB18] ?
Ans: ≤0.06

Q: Also CC[P+](CC)(CC)[Au-][c]1nn[nH]c1COC(=O)N[C@H](Cc1c[nH]c2ccccc12)C(=O)O [TMB30] , if possible.
Ans: 0.125

Q: Again, but for CC1(C)S[C@@H]2[C@H](NC(=O)[C@H](NC(=O)OCc3cnnn3Cc3ccccc3)c3ccccc3)C(=O)N2[C@H]1C(=O)O [TMB7]
Ans: 4

Q: One more molecule: CC[P+](CC)(CC)[Au-][c]1nn[nH]c1COC(=O)N[C@H](Cc1ccccc1)C(=O)O [TMB27]
Ans: 0.125

Q: Entry to check: CC[P+](CC)(CC)[Au-][c]1nn[nH]c1CCS(N)(=O)=O [TMB36]
Ans: ≤0.06

Q: Then this molecule: O=C(N[C@@H](C(=O)O)c1ccccc1)OCc1cnn[nH]1 [TMB41]
Ans: >8

Q: Similarly, O=C(CCc1cnn[nH]1)N[C@@H](C(=O)O)c1ccccc1 [TMB46] ?
Ans: >8

Q: Now consider CC[P+](CC)(CC)[Au-][c]1nn[nH]c1CCC(=O)O [TMB19] .
Ans: ≤0.06

Q: Also check CC[P+](CC)(CC)[Au-][c]1nn[nH]c1COC(=O)NC(C(=O)O)c1ccccc1 (stereo not drawn) [TMB45]
Ans: 0.125

Q: Item: CC[P+](CC)(CC)[Au-][c]1nn[nH]c1-c1ccc(C(=O)O)cc1 [TMB14]
Ans: 0.125

Q: Try this molecule too: CC[P+](CC)(CC)[Au-][c]1nn[nH]c1CC(N)C(=O)O (stereo not drawn) [TMB37]
Ans: ≤0.06
